- Tested on: CRL-7250
- Procedure Details: Cytotoxic Profiling of Annotated Libraries Using Quantitative High-Throughput Screening (AID 1296008); further: nearly all actives have a fitted effect of over 60% in size
- Test Settings: Five cell lines viability, CellTiter-Glo ATP luminescence, 48-72 h
- Experimental: Cell-based phenotypic screening is a commonly used approach to discover biological pathways, novel drug targets, chemical probes and high-quality hit-to-lead molecules. […] A pintool (Kalypsys) was used to transfer 23 nL of compound solution to the 1536-well assay plates. […] Plates were left at room temperature for 10 min before imaging the ATP-coupled luminescence using a ViewLux microplate imager (PerkinElmer, Waltham, MA).
Inconclusive results are not listed. The source made the active and inactive calls. The call rests on the fitted dose curve; in most records, active means well fitted inhibition curve with a large enough effect; inconclusive means small, poorly fitted or top-dose-only effect; inactive means flat fitted curve, though single readings scatter.
Measurement Label: outcome

{"columns": ["Molecule", "Measurement Label", "Result"],
 "data": [
  ["C[C@H](/C=C/[C@@]1(O)[C@H](C)CC(=O)CC1(C)C)O[C@@H]1O[C@H](CO[C@@H]2OC[C@@H](O)[C@H](O)[C@H]2O)[C@@H](O)[C@H](O)[C@H]1O", "outcome", "inactive"],
  ["C/C=C(/C)C(=O)O[C@H]1C[C@]2(C)O[C@@H]2[C@@H](OC(C)=O)[C@@]2(C)CC[C@@](O)(C(C)C)[C@H]12", "outcome", "inactive"],
  ["C=CC(C)(O)CC/C=C(\\C)C(=O)O[C@@H]1[C@@H](O)[C@H](OC(C)(C=C)CC/C=C(\\C)C(=O)O)O[C@H](CO)[C@H]1OC(=O)/C(C)=C/CCC(C)(O)C=C (stereo partly drawn)", "outcome", "inactive"]
]}
